- Tested on: SF-295
- measurementNotes: NCI tumour cell line growth inhibition, 48 h
The source made the active and inactive calls. No stated cut-off is given here; in the data, active = GI50 up to about 1.1 µM and inactive = higher. Peptide text beside a SMILES is read from it. * marks the point of attachment. Cbz = O=C(OCc1ccccc1)*; NHNH2 = NN*
parameterMeasured: GI50

C=C1C(=O)C23C(O)C1CCC2C12CO[C@]3(O)[C@@H](O)C1C(C)(C)CCC2O (some centres not stated): 16.7 µM (inactive)

Hello, I would appreciate it if you could give GI50 for each entry below.
1. CN(c1cn(C2CC[C@@H](CO)O2)c(=O)[nH]c1=O)C1CCCCC1 (some centres not stated)
2. Cc1nc(N)c(N2CCN(CN)CC2)c(O)n1
3. O=C(Nc1cc(C(=O)Nc2cccc(S(=O)(=O)O)c2)cc(C(=O)Nc2cccc(S(=O)(=O)O)c2)c1)c1cccc(C(=O)Nc2cc(C(=O)Nc3cccc(S(=O)(=O)O)c3)cc(C(=O)Nc3cccc(S(=O)(=O)O)c3)c2)c1
4. C=CCCCCCCCCC(=O)O
5. COC(=O)/C=C/COCC1C2CCC(=O)C21 (configuration not stated)

1. > 100 µM (inactive)
2. > 100 µM (inactive)
3. > 100 µM (inactive)
4. 109 µM (inactive)
5. > 100 µM (inactive)

I am curious: what GI50 value has been reported for COC(=O)CC(NC(=O)OCc1ccccc1)C(=O)NC(CC(=O)OC)C(=O)NC(CC(=O)OC)C(=O)NC(CC(=O)OC)C(=O)NC(CC(=O)OC)C(=O)NC(CC(=O)OC)C(=O)NN (configuration not stated) (Cbz-D(OMe)D(OMe)D(OMe)D(OMe)D(OMe)D(OMe)-NHNH2; configuration not given here) ?
> 100 µM (inactive)

---

- Tested on: HL-60
- measurementNotes: NCI tumour cell line growth inhibition, 48 h
The source made the active and inactive calls. Rule as the data show it: active = GI50 up to about 1.1 µM and inactive = higher.
parameterMeasured: GI50

// known answers, use as guide
NC1=NS(=O)(=O)Nc2nc(-c3cccs3)[nH]c21: > 100 µM (inactive)
COc1ccc(-c2cc(-c3ccco3)c(C#N)c(=S)n2C2OC(COC(C)=O)C(OC(C)=O)C(OC(C)=O)C2OC(C)=O)cc1 (stereo not given): 3.98 µM (inactive)
CC1c2ccccc2Cn2cc3c(c21)C(=O)c1cccc(OP(=O)(O)OCc2ccccc2)c1C3=O (stereo not given): > 52.5 µM (inactive)
Nc1nc[n+](Cc2ccccc2CCO)c2[nH]cnc12: > 100 µM (inactive)
CSc1nsc(-c2ccccc2)[s+]1.[O-][Cl+3]([O-])([O-])[O-]: 72.1 µM (inactive)

Hello, I would appreciate it if you could give GI50 for each entry below.
1. COc1ccc(C(NS(=O)(=O)c2ccc(C)cc2)c2c(C(CBr)OC)c3ccccc3n2S(=O)(=O)c2ccccc2)cc1OC (stereo not given)
2. Cc1nc2ccccc2c(=O)n1NC(=O)c1ccccn1
3. CCCC(=O)NC1=C(NCC)C(=O)c2ccccc2C1=O
4. OC1CC1Sc1ccccc1 (stereo not given)
5. Cc1ccc(S(=O)(=O)NC(=O)NCCC(=O)O)cc1

> 100 µM (inactive)
> 100 µM (inactive)
40.5 µM (inactive)
14.2 µM (inactive)
> 100 µM (inactive)

---

What GI50 was measured for each of the following?
- Test system: SN12C
- measurementNotes: NCI tumour cell line growth inhibition, 48 h
Activity calls are given as the source filed them. Cut-off read from the data, not from the text of the source: active = GI50 up to about 1.1 µM and inactive = higher.

// known answers, use as guide
COc1ccc(C2=NN(C(=O)c3ccccc3)C(O)(c3cc(F)c(Cl)cc3Cl)C2)cc1OC (stereo not given): 94.4 µM (inactive)
O=C1N[C@H]2C(=O)c3c(Br)sc(Br)c3[C@H]2O1: 4.76 µM (inactive)

Hello, I would appreciate it if you could give GI50 for each entry below.
1. O=c1ccs[nH]1
2. CCc1cccc(C(C)C)c1N1C(=O)C(=O)C(c2nc3ccccc3s2)C(=O)C1=O
3. O=C(Nc1cc(C(=O)Nc2cccc(S(=O)(=O)O)c2)cc(C(=O)Nc2cccc(S(=O)(=O)O)c2)c1)c1cccc(C(=O)Nc2cc(C(=O)Nc3cccc(S(=O)(=O)O)c3)cc(C(=O)Nc3cccc(S(=O)(=O)O)c3)c2)c1

1. 11.1 µM (inactive)
2. > 50 µM (inactive)
3. > 100 µM (inactive)

Data origin: ChEMBL document CHEMBL1201862
